# Tested on: human monocyte-derived macrophages (polarized)
# assayText: cell shape (eccentricity) Z-score vs DMSO control; higher = more elongated, M2-like morphology
# conditionSummary: 5 µM; 24 h; macrophage state: M1-polarized (IFNg + TNFa), cytokines present during treatment
Decision: cell shape (Z-score) >= 7 yields TRUE, all other cases yield FALSE.

Record excerpt, results attached:
structureSmilesString: O=C(c1ccc(/C=C/c2n[nH]c3ccccc23)cc1)N1CCNCC1
discreteLabel: TRUE

structureSmilesString: O=C1Cc2c([nH]c3ccc([N+](=O)[O-])cc23)-c2ccccc2N1
discreteLabel: FALSE

structureSmilesString: CC(C)(C)n1nc(-c2cccc3ccccc23)c2c(N)ncnc21
discreteLabel: FALSE

structureSmilesString: c1ccc2c(Oc3nc(Nc4ccc(N5CCOCC5)cc4)c4ncn(C5CCCCC5)c4n3)cccc2c1
discreteLabel: TRUE

In: Decide: cell shape (Z-score) of `N#Cc1ccc(COC[C@H]2O[C@@H](n3c(NCc4ccc(Cl)c(Cl)c4)nc4c(N)ncnc43)[C@H](O)[C@@H]2O)cc1` >= 7?
Out: FALSE

* * *

# Tested on: human monocyte-derived macrophages (polarized)
# assayText: cell shape (eccentricity) Z-score vs DMSO control; higher = more elongated, M2-like morphology
# conditionSummary: 5 µM; 24 h; macrophage state: M2-polarized (IL-4 + IL-13), cytokines present during treatment
Decision: cell shape (Z-score) >= -1 yields Y, all other cases yield N.

compound: CN1[C@@H](CC(=O)c2ccccc2)CCC[C@H]1C[C@H](O)c1ccccc1
testedOn: human monocyte-derived macrophages (polarized)
discreteLabel: Y
--
compound: Cc1oc(=O)oc1CN1CCN(c2cc3c(cc2F)c(=O)c(C(=O)O)c2n3C(C)S2)CC1 (centres undefined)
testedOn: human monocyte-derived macrophages (polarized)
discreteLabel: N
--
compound: CCCCC[C@H](O)/C=C/[C@H]1[C@H](O)CC(=O)[C@@H]1CCCCCCC(=O)O
testedOn: human monocyte-derived macrophages (polarized)
discreteLabel: N
--
compound: CC1(C)O[C@@H]2C[C@H]3[C@@H]4CCC5=CC(=O)CC[C@]5(C)[C@@]4(F)[C@@H](O)C[C@]3(C)[C@]2(C(=O)CCl)O1
testedOn: human monocyte-derived macrophages (polarized)
discreteLabel: N
--
compound: O=C(Nc1ccc([N+](=O)[O-])cc1O)Nc1ccccc1Br
testedOn: human monocyte-derived macrophages (polarized)
discreteLabel: N
--
compound: CC(=O)Oc1cc2c(c(C)c1OC(C)=O)CC=C1[C@@]2(C)CC[C@@]2(C)C3C[C@](C)(C(=O)O)CC[C@]3(C)CC[C@]12C (some centres undefined)
testedOn: human monocyte-derived macrophages (polarized)
discreteLabel: Y
--
compound: C=C(C(=O)O)[C@@H]1CC[C@@]2(C)CC[C@H](O)[C@@]2(C(C)=O)C1
testedOn: human monocyte-derived macrophages (polarized)
discreteLabel: N
--
compound: COc1ccc(C[C@H](N)C(=O)N[C@H]2[C@@H](O)[C@H](n3cnc4c(N(C)C)ncnc43)O[C@@H]2CO)cc1
testedOn: human monocyte-derived macrophages (polarized)
discreteLabel: N
--
compound: O=C(O)Cc1nn(Cc2ccc(Br)cc2F)c(=O)c2ccccc12
testedOn: human monocyte-derived macrophages (polarized)
discreteLabel: N
--
compound: COc1ccc(S(=O)(=O)N(C(C)=O)c2ccccc2/C=C/c2cc[n+]([O-])cc2)cc1
testedOn: human monocyte-derived macrophages (polarized)
discreteLabel: N

In: Decide: cell shape (Z-score) of CC(C)C1C2CCC(C2)C1N (centres undefined) >= -1?
Out: N

In: Can you check `c1ccc2cc(C3=NCCN3)ncc2c1` next?
Out: Y

In: Can you check `NC(N)=Nc1nc(CSCC/C(N)=N/S(N)(=O)=O)cs1` next?
Out: Y

In: Can you check `O=C(O)CC[C@H]1CC[C@@](c2cc(F)ccc2F)(S(=O)(=O)c2ccc(Cl)cc2)CC1` next?
Out: Y

In: Can you check `C=C1C(=O)O[C@@H]2C3=C(C)CC[C@]34O[C@@H](C[C@@H]4C)[C@H]12` next?
Out: Y

In: Can you check `CN(C)c1ccc(C(=C2C=CC(=[N+](C)C)C=C2)c2ccc(N(C)C)cc2)cc1` next?
Out: N

In: Can you check `CC(=O)OCCNC(=O)c1cccnc1` next?
Out: Y

In: Can you check `OC1(c2ccc(Cl)c(C(F)(F)F)c2)CCN(CCCC(c2ccc(F)cc2)c2ccc(F)cc2)CC1` next?
Out: N

In: Can you check `CCC[C@H](NC(=O)/C(C#N)=C/c1cccc(Br)n1)c1ccccc1` next?
Out: N
